# Tested on: HT29 colon
# Assay info: NCI tumour cell line growth inhibition, 48 h; in the data active = GI50 below about 0.43 µM; inactive = the rest
Outcome codes: 1.0 = active, 0.0 = inactive

Compound	Measured on	Group label
COc1ccc(/C=N\NC(=O)CN2CCN(c3cc4c(cc3F)c(=O)c(C(=O)N/N=C/c3ccc(OC)c(OC)c3)cn4C3CC3)CC2)cc1OC	HT29 colon	0.0
O=c1c(Oc2ccc(F)cc2F)cc2cnc(NC3CCOCC3)nc2n1C1CCS(=O)(=O)CC1	HT29 colon	0.0
COc1cc(OC)c(/C=C/S(=O)(=O)Cc2cnc(OC)c(N)c2)c(OC)c1	HT29 colon	1.0
O=C1c2ccccc2-c2c1c1ccccc1c(=O)n2CCCNCCCn1ccnc1	HT29 colon	0.0
COc1cc(OC)cc(C2CC(=O)Nc3c2c(C)nn3-c2nc3ccccc3[nH]2)c1 (stereo not given)	HT29 colon	0.0

###

# Tested on: HOP-92 NSCLC
# Assay info: NCI tumour cell line growth inhibition, 48 h

Compound	Measured on	TGI
CC[C@@H]1OC2(C)CC(S(=O)(=O)c3ccccc3O)CC1O2 (stereo not given in full)	HOP-92 NSCLC	> 100 µM
N#CC(C#N)N=Cc1ccncc1	HOP-92 NSCLC	> 100 µM
C=C(Cl)c1c(OC)cccc1OCc1ccccc1	HOP-92 NSCLC	78.9 µM
CC(C)CS(=O)(=O)/C(=C(\c1ccc(Br)cc1)S(=O)(=O)CC(C)C)c1ccc(Br)cc1	HOP-92 NSCLC	> 100 µM
COC(=O)c1s/c(=N\C(=S)N(C)C)n(-c2ccccc2)c1C(=O)OC	HOP-92 NSCLC	> 100 µM
COc1cc2c(cc1OCCCOc1cc3c(cc1OC)C(=O)N1C[C@H](F)C[C@H]1C=N3)N=C[C@@H]1C[C@@H](F)CN1C2=O	HOP-92 NSCLC	18 µM
COc1ccc(OC)c2sc(N3C(=O)/C(=C/c4ccc(Cl)cc4)N=C3c3ccccc3)nc12	HOP-92 NSCLC	> 100 µM
COc1ccc(/C=N\NC(=O)CN2CCN(c3cc4c(cc3F)c(=O)c(C(=O)N/N=C/c3ccc(OC)c(OC)c3)cn4C3CC3)CC2)cc1OC	HOP-92 NSCLC	6.9 µM
Cc1cc(C)nc(NS(=O)(=O)c2ccc(Nc3c4ccccc4nc4c(C(=O)NNCCO)cccc34)cc2)n1	HOP-92 NSCLC	> 100 µM
O=C1NC(=O)C(Cc2ccccc2)(c2cccnc2)N1 (stereo not given)	HOP-92 NSCLC	> 100 µM

###

# System: LXFL 529 NSCLC
# Assay info: NCI tumour cell line growth inhibition, 48 h
Metric: TGI

Compound	Obs value
CC1=C(C(=O)Nc2ccccc2C)C(c2ccc(Cl)c(Cl)c2)C(C(=O)Nc2ccccc2C)=C(C)N1	43.4 µM
CC[C@@H]1OC2(C)CC(S(=O)(=O)c3ccccc3O)CC1O2 (some centres not stated)	> 100 µM
CC1C[C@@]2(c3ccccc3)C(=O)CCC[C@H]2N1 (some centres not stated)	> 100 µM
CCOC(=O)NC(=O)c1cn(CC(=O)NCC(=O)NCC(=O)NCCCN2CCN(CCCNC(=O)CNC(=O)CNC(=O)Cn3cc(C(=O)NC(=O)OCC)c(=O)[nH]c3=O)CC2)c(=O)[nH]c1=O	> 100 µM
CC(=O)Nc1ccc(C(=O)NN2C(=O)C(Cl)C2c2ccc(Cl)cc2)cc1 (configuration not stated)	> 100 µM
CC/C(C)=C1\CCC(CN2CCOCC2)C1=O (configuration not stated)	23.7 µM
COc1ccccc1N1C(=O)/C(=C/c2ccc(N(CCC#N)CCC#N)cc2C)N=C1c1cc([N+](=O)[O-])ccc1Cl	> 100 µM

###

# TGI per entry
# Test system: HL-60(TB) leukemia
# Assay info: NCI tumour cell line growth inhibition, 48 h

Molecule	Result unit	Sign qualifier	TGI
CCN(CC)CSc1nc2ccccc2o1	µM	>	100
CN(C)C=C1C(=O)c2c(Br)sc(Br)c2C1=O	µM	=	53.7
CCN(CC)CCC(=O)NC1c2ccc(Cl)cc2Oc2c(C)cccc21 (configuration not stated)	µM	=	41.2
CC/C(C)=C1\CCC(CN2CCOCC2)C1=O (configuration not stated)	µM	=	44
O=C(c1cc(Cl)cc(Cl)c1)N(C(=O)N1CCN(c2ccccc2)CC1)c1ccccc1	µM	>	100
CC1(C)C2CCC3=C(CCC4(C)C5C[C@](C)(C(=O)O)CC[C@]5(C)CC[C@]34C)[C@@]2(C)CC[C@@H]1O (some centres not stated)	µM	=	50.4
O=C1CC(NC(=O)C(F)(F)F)c2c1csc2Br (configuration not stated)	µM	>	100
Cc1[nH]c2ccccc2c1C1Cc2ccccc2N1C(=O)/C=C\C(=O)O (configuration not stated)	µM	=	68.2
CCOC(=O)C(C(=O)OCC)=C1NC2(c3ccccc3Nc3ccc(C)cc32)C(C#N)S1 (configuration not stated)	µM	=	61.2
CCOC(=O)C(SCCO)C(C(=O)OCC)n1cnc2c(N)ncnc21 (configuration not stated)	µM	=	5.46
Ic1ncnc2c1ncn2C1CCCO1 (configuration not stated)	µM	>	100
CC(=O)c1cccc(N2COC(C)(C)c3nc4ccccc4n3C2)c1	µM	>	100
O=C1c2ccccc2-c2cccc3ccc(Cc4ccc5ccccc5c4)c1c23	µM	>	100
CN(C)C=Nc1cccc2nsnc12	µM	>	100
O=C(c1ccccc1)c1ccc2nc3n(c2c1)C(c1c(F)cccc1F)SC3 (configuration not stated)	µM	>	100
CCNC(=O)CCN(C(=O)O)S(=O)(=O)c1ccc(NC(=O)c2ccccc2)cc1	µM	>	100
CC(C)=CCC[C@@H](C)C1=C(O)C(O)C(C)=C2N=C(c3ccccc3)C(=O)OC21 (some centres not stated)	µM	=	1.63
O=C(O)c1ccc(P(=O)(O)c2ccc(C(=O)O)cc2Br)c(Br)c1	µM	>	100
Cc1nc2sc(C(=O)Nc3cccc(Cl)c3C)c(N)c2cc1C(=O)/C=C/c1ccccc1	µM	=	2.13
CN1CCN(CCCN)CC1	µM	>	100
C=C1C(=O)O[C@H]2[C@H]1CC/C(CNC(=O)c1cc3cc(OC)ccc3[nH]1)=C\CC[C@@]1(C)O[C@@H]21	µM	=	6.37
Cc1cc(C)nc(NS(=O)(=O)c2ccc(NNc3c4ccccc4nc4c(C(=O)Nc5ccc(S(=O)(=O)Nc6ncccn6)cc5)cccc34)cc2)n1	µM	=	62.9

###

# System: EKVX NSCLC
# Assay info: NCI tumour cell line growth inhibition, 48 h
Metric: TGI

Compound	Measured on	Obs value
C=C(Cl)c1c(OC)cccc1OCc1ccccc1	EKVX NSCLC	> 100 µM
CC(C)(C)[Si](C)(C)O[C@@H](C(=O)OC1C=CCCC1)[C@@H](NC(=O)c1ccccc1)c1ccccc1 (stereo not given in full)	EKVX NSCLC	> 100 µM
CN[C@@H](C)C(=O)N[C@H](C(=O)N1CCC[C@H]1C(=O)N[C@H]1c2ccccc2C[C@H]1OCC#CC#CCO[C@@H]1Cc2ccccc2[C@@H]1NC(=O)[C@@H]1CCCN1C(=O)[C@@H](NC(=O)[C@H](C)NC)C1CCCCC1)C1CCCCC1	EKVX NSCLC	20.6 µM
COc1cc(OC)cc(C2CC(=O)Nc3c2c(C)nn3-c2nc3ccccc3[nH]2)c1 (stereo not given)	EKVX NSCLC	> 100 µM
Cc1oc2c(c1C)S(=O)(=O)C(C#N)=C(c1ccccc1)N2	EKVX NSCLC	> 100 µM
Nc1nc(N)c2cc(Sc3ccc4nc(N)nc(N)c4c3)ccc2n1	EKVX NSCLC	> 100 µM
COc1cc(Nc2nccc(Nc3ccc4c(C)[nH]nc4c3)n2)cc(OC)c1OC	EKVX NSCLC	9.19 µM
Cc1cc(Cl)ccc1NC(=O)CCCC(=O)C1CCCC1=O (stereo not given)	EKVX NSCLC	> 100 µM
Cc1c(C)c2c(c(N)c1C#N)C(=O)N(CCc1ccccc1)C2=O	EKVX NSCLC	> 100 µM
O=C(Nc1ccc(Cl)cc1)C(=O)C(C(=O)c1ccccc1-c1ccccc1)C1OC(=O)c2ccccc21 (stereo not given)	EKVX NSCLC	37.9 µM
O=C(c1ccccc1)c1ccc2nc3n(c2c1)C(c1c(F)cccc1F)SC3 (stereo not given)	EKVX NSCLC	> 48.4 µM
C=CCC(N[C@H](CO)c1ccccc1)c1ccc2ccccc2n1 (stereo not given in full)	EKVX NSCLC	> 100 µM
CN(C)C=C1C(=O)c2c(Br)sc(Br)c2C1=O	EKVX NSCLC	40.5 µM
COC(=O)c1s/c(=N\C(=S)N(C)C)n(-c2ccccc2)c1C(=O)OC	EKVX NSCLC	> 100 µM
COc1cc(OCc2nc3ccccc3n3cccc23)cc(OC)c1OC	EKVX NSCLC	> 62.7 µM
Nc1nc(Cl)c(N)c(NCC2(CO)CCC2)n1	EKVX NSCLC	> 100 µM
CNc1c2cccc(C)c2nc2c(C(=O)NCCN(C)C)cccc12	EKVX NSCLC	1.33 µM
COc1ccc2c(c1)/C(=C\c1c(C)nc3n1CCS3)C(=O)N2	EKVX NSCLC	> 100 µM
CC1=C(C(=O)Nc2ccccc2C)C(c2ccc(Cl)c(Cl)c2)C(C(=O)Nc2ccccc2C)=C(C)N1	EKVX NSCLC	> 100 µM
COc1cc2c[n+](C)c3c4cc5c(cc4ccc3c2cc1OC)OCO5	EKVX NSCLC	18.7 µM
